Molecular target: Protein S100-A4 (Homo sapiens) (UniProt P26447)
Sequence (P26447 whole entry, looked up): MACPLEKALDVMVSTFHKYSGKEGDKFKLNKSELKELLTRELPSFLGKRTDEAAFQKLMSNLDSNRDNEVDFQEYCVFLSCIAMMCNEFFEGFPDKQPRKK
Experiment: inhibitors of S100A4-myosin IIA peptide binding, primary screen, biochemical, fluorescence polarization, TAMRA-MyoIIA peptide (AID 652163)
Conditions: at 10.7 µM, active compounds read high
The whole screen tested about 360,000 compounds, of which about 500 (0.14%) were called active. The full list was thinned out, with actives kept by preference.
Can you tell me inhibition for the items I'm about to list?
Answers are plain numbers, in %.

Use the examples below as a reference point.
QUERY: Requested field: inhibition. Item: COC(=O)c1c(NC(=O)C2CC(C)=C(C)CC2C(=O)O)sc2c1CCCCC2 (stereo not drawn)
RESULT: -3.38

QUERY: Same question, Cn1cnc(S(=O)(=O)N2C[C@H](O)COC[C@@H]3O[C@H](CC(=O)NC4Cc5ccccc5C4)CC[C@H]32)c1 this time
RESULT: 2.44

QUERY: Quick one: COc1ccc(NC(=O)N(C)C[C@@H]2OCCCC[C@@H](C)Oc3ccc(NC(=O)C4CCCCC4)cc3C(=O)N([C@@H](C)CO)C[C@@H]2C)cc1
RESULT: 2.51

QUERY: Same for COc1cccc2c1C(=O)c1c(O)c3c(c(O)c1C2=O)CC(O)(C(C)=NNC(=O)c1ccc(Cl)c(Cl)c1)CC3OC1CC(N)C(O)C(C)O1 (stereo not drawn)
RESULT: 189

QUERY: Could you do the same for O=C(NCC1CC1)[C@@H]1[C@@H](CO)[C@@H]2Cn3c(ccc(-c4ccncc4)c3=O)[C@H]1N2Cc1nccs1 , please?
RESULT: 5.95

The following compounds each have a reported value; give each one's inhibition.
1. COC(=O)c1c(NC(=O)CSc2nncs2)sc2c1CCCCC2
2. O=C(NCC1CC1)[C@@H]1[C@@H](CO)[C@@H]2Cn3c(ccc(-c4ccccc4)c3=O)[C@H]1N2C(=O)C1CC1
3. CN1CCN(C(=O)C[C@@H]2CC[C@@H]3[C@@H](COc4ccc(NC(=O)c5ccc(F)c(F)c5)cc4C(=O)N3C)O2)CC1

RESULT:
1: -2.13; 2: 5.45; 3: -20.1

----------
Target: Protein S100-A4 (Homo sapiens) (UniProt P26447)
Assay: inhibitors of S100A4-myosin IIA peptide binding, primary screen, biochemical, fluorescence polarization, TAMRA-MyoIIA peptide (AID 652163)
Conditions: at 10.7 µM, active compounds read high
Screen size: about 360,000 compounds; about 500 (0.14%) were called active. Only a selection was taken, and actives are over-represented in it overall.
Consider the following molecules; for each one, report its inhibition.
Answers are plain numbers, in %.

QUERY: Need inhibition of CN1C(=O)c2cc(NC(=O)C3CCCC3)ccc2OC[C@H]2O[C@H](CC(=O)NCc3ccccc3F)CC[C@H]21 , thanks.
RESULT: -2.52

QUERY: Now consider CCCNC(=O)N1C[C@H](C)[C@@H](OC)CN(C)C(=O)c2ccc(NS(=O)(=O)CC(F)(F)F)cc2OC[C@@H]1C .
RESULT: -4.41

Dear colleague, could you send me inhibition for each of the items below? Thanks.
1. CN(C)C(=O)[C@@H]1[C@@H](CO)[C@@H]2Cn3c(ccc(C4=CCCC4)c3=O)[C@H]1N2Cc1ccccn1
2. COc1cccc(NC(=O)c2ccc3c(SCC(=O)O)c4c(nc3c2)CCCC4)c1

RESULT:
1: 6.14; 2: 6.49
